z-score values, listed per item
- testName: JC-1 mitochondrial signal, unstimulated adipocytes – cell-based, JC-1 fluorescence, 3T3-L1 adipocytes, 24 h, 100 nL compound, profiling panel (AID 1168); note: test concentration not given here
- experimentalConditions: JC-1 mitochondrial fluorescence, higher = more signal, called active from +8 up or from −8 down
I only need the number, thanks.

Use these answered entries as a reference point.
# smilesStructure, observedMeasurement
data = [
    ("O=C1C[C@@](C(=O)NCc2ccccc2)(c2ccc([N+](=O)[O-])cc2)[C@@H](c2ccc(CO)cc2I)N1C1CCCCC1", 0.254),
    ("CCCN1C(=O)[C@@]2(Cc3ccccc3)N=C(c3ccc(OCCCO)cc3)O[C@H]2c2ccccc21", 1.18),
    ("COc1ccc(C(=O)Nc2ccc(CN3C(=O)[C@]4(O[C@H](CCn5cc([C@H](O)c6ccccc6)nn5)[C@@H]([Si](C)(C)c5ccc(OC)cc5)[C@@H]4C)c4ccccc43)cc2)cc1", 0.374),
]

Query block: Using the record for COCC(=C=CC[C@@H](O)c1ccccc1OCCO)C[C@@H](O)c1ccccn1 , report its z-score.
Result block: -0.99

Query block: Using the record for COc1ccc([Si](C)(C)[C@@H]2[C@@H](CCO)O[C@]3(C(=O)N(Cc4ccc(N5C(=O)c6ccccc6Oc6ccccc65)cc4)c4ccccc43)[C@H]2C)cc1 , report its z-score.
Result block: 0.462

Query block: Using the record for NC(=O)NCC#Cc1ccc2c(c1)[C@]1(C(=O)N2)[C@H](c2ccc(OCCO)cc2)N2[C@H](c3ccccc3)[C@H](c3ccccc3)OC(=O)[C@H]2[C@@H]1C(=O)N1CCN(c2ncccn2)CC1 , report its z-score.
Result block: 0.721

Query block: Using the record for C=CCOC(=O)[C@@H]1[C@H]2C(=O)O[C@H](c3ccccc3)[C@H](c3ccccc3)N2[C@H](c2ccc(OCCOC(=O)[C@@H]3C[C@@H]4C(=O)N[C@@H](CCCCNC(C)=O)C(=O)N4[C@@H]3c3ccc(O)cc3)cc2)[C@@]12C(=O)Nc1ccc(I)cc12 , report its z-score.
Result block: 1.21

Query block: Using the record for COCCOC(=O)N1C(=O)[C@@]2(c3cc(C#CC4(O)CCCCCC4)ccc31)[C@H](C(=O)N1CCc3cc(OC)c(OC)cc3C1)[C@H]1C(=O)O[C@H](c3ccccc3)[C@H](c3ccccc3)N1[C@@H]2c1ccccc1OCCO , report its z-score.
Result block: 1.29

----------
- targetEntity: Torsin-1A-interacting protein 2 (Homo sapiens) (UniProt Q8NFQ8)
- Sequence (Q8NFQ8 whole entry, looked up): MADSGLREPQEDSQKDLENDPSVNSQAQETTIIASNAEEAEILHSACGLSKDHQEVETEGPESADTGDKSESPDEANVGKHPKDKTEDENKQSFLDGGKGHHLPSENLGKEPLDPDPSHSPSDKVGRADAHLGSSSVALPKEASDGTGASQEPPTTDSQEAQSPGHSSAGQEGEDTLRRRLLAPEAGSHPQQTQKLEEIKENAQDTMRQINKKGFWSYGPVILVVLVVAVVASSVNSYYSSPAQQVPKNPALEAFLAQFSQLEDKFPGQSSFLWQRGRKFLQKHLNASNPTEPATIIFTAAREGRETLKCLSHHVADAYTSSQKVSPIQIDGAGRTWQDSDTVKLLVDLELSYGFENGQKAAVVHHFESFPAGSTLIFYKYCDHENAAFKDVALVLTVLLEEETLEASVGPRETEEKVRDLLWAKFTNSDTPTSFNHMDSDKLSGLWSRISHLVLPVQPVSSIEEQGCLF
- testName: small molecules binding lysate-expressed LULL1 – cell lysate, human LULL1 lysate, 635/667 nm fluorescence, primary screen (AID 1092);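 note: probe is lysate of COS7 cells overexpressing human LULL1; score merges per-feature 667 nm fluorescence with signal-to-noise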
- experimentalConditions: small-molecule microarray, hLULL1 lysate binding, 635 nm fluorescence; higher = more signal
measure: composite z-score
I only need the number, thanks.

Use these answered entries as a reference point.
# compound, observedMeasurement
data = [
    ("COCCOC(=O)N1C(=O)[C@@]2(c3cc(C#CCCO)ccc31)[C@H](c1ccc(OCCO)cc1)N1[C@H](c3ccccc3)[C@H](c3ccccc3)OC(=O)[C@H]1[C@@H]2C(=O)N1CCc2cc(OC)c(OC)cc2C1", 2.48),
    ("O=C1O[C@H](c2ccccc2)[C@H](c2ccccc2)N2[C@H]1[C@@H](C(=O)NC[C@H](O)c1ccccc1)[C@]1(C(=O)Nc3ccccc31)[C@H]2c1ccccc1OCCO", 2.92),
    ("O=C1C2C=CC(C(O)c3ccc(Br)cc3)N(Nc3ccccc3)C2C(=O)N1c1ccccc1 (stereo not given)", 2.12),
    ("OCc1ccc(-c2cc[n+](Cc3cccc(OC(F)(F)F)c3)cc2)cc1", 1.99),
    ("COC(=O)[C@@]1(Cc2ccccc2)[C@H]2c3cc(C(=O)N4CCCC4)n(CCO)c3C[C@H]2CN1C(=O)c1ccccc1", 2.92),
    ("COCC(=C=CC[C@@H](O)c1ccccc1OCCO)C[C@@H](O)COCc1ccccc1", 2.62),
    ("C[N+](C)(C)CCCCCCNC(=O)[C@H]1C[C@H]2C(=O)N3CCC[C@H]3C(=O)N2[C@H]1c1cccc(OCCO)c1", 3.24),
    ("CN1C(=O)C2C=CC(C(O)C3CCCCC3)N(N(c3ccccc3)c3ccccc3)C2C1=O (stereo not given)", 2.5),
]

Query block: Using the record for CO[C@H]1O[C@H](CO)[C@@H](OC(=O)c2ccc(Br)cc2)[C@@H]2OC(=O)[C@H](Cc3cccc(Br)c3)C/C=C/C[C@@H](Cc3cccc(Br)c3)C(=O)O[C@@H]12 , report its composite z-score.
Result block: 1.08

Query block: Using the record for COC(=O)[C@]1(Cc2ccccc2N=[N+]=[N-])N=C(c2ccc(OCCCO)cc2)O[C@@H]1c1ccccc1 , report its composite z-score.
Result block: 2.21

Query block: Using the record for O=C1C2C=CC(C(O)c3ccccn3)N(Nc3ccccc3)C2C(=O)N1c1ccccc1 (stereo not given) , report its composite z-score.
Result block: 2.24

Query block: Using the record for [N-]=[N+]=NCc1ccccc1[C@H]1OC(c2ccc(OCCCO)cc2)=N[C@@]1(Cc1ccccc1N=[N+]=[N-])C(=O)NCCN1CCOCC1 , report its composite z-score.
Result block: 3.43

Query block: Using the record for O=C1c2ccccc2[C@](Cc2ccccc2I)(C(=O)NCC(F)(F)F)[C@H](c2ccc(CO)cc2)N1Cc1ccccc1 , report its composite z-score.
Result block: 2.45

Query block: Using the record for CCOC(=O)C1=CC[C@@H](c2ccccc2)N(S(=O)(=O)c2ccc(C)cc2)[C@H]1C=C(C)C , report its composite z-score.
Result block: 3.22

Query block: Using the record for OCCCC1=CC(c2cccs2)N(Cc2cccc(OC(F)(F)F)c2)CC1 (stereo not given) , report its composite z-score.
Result block: 0.365

----------
- Tested on: Human papillomavirus type 1a protein E7 (residues 44-93)
- testName: small molecules binding HPV E7 44-93 – biochemical, small-molecule microarray, residues 44-93, 635 nm fluorescence, primary screen (AID 1108);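 note: E7 fragment applied at 1 µg/mL in TBST for 1 h at 4 C; score combines spot fluorescence with its signal to noise ratio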
- experimentalConditions: fluorescence 635 nm, higher = more signal
composite z-score values, listed per item

Use these answered entries as a reference point.
# compound, observedMeasurement
data = [
    ("COCCOC(=O)N1C(=O)[C@@]2(c3ccccc31)[C@H](c1ccccc1OCCO)N1[C@H](c3ccccc3)[C@H](c3ccccc3)OC(=O)[C@H]1[C@@H]2C(=O)N1CCc2cc(OC)c(OC)cc2C1", 0.825),
    ("C=C(COC)C(=O)CC[C@H](OC(=O)c1ccccc1-c1ccccc1C(=O)O)c1ccc(OCCO)cc1", 0.701),
]

Query block: Using the record for C=CCNC(=O)[C@H]1[C@@H]2C(=O)O[C@@H](c3ccccc3)[C@@H](c3ccccc3)N2[C@@H](c2ccc(O)cc2)[C@]12C(=O)N(C(=O)OCCOC)c1ccc(C#CC3(O)CCCCCC3)cc12 , report its composite z-score.
Result block: 0.739

----------
- testName: compound effects on differentiated 3T3-L1 adipocyte viability – cell-based, 3T3-L1 adipocytes, calcein-AM fluorescence, 48 h, basal, profiling panel (AID 1163); note: test concentration not given here
- experimentalConditions: 3T3-L1 adipocytes viability, higher = more signal
measure: z-score
I only need the number, thanks.

# molecule, observedMeasurement
measured = [
    ("C[N+](C)(C)CCCCCCNC(=O)[C@H]1C[C@H]2C(=O)N3CCC[C@H]3C(=O)N2[C@H]1c1cccc(OCCO)c1", -1.25),
    ("C=C(/C(=C/C[C@@H](OC(=O)c1ccncc1)c1ccccc1OCCO)c1cnc2ccccc2c1)C(C)C", -0.368),
    ("CC(C)C[C@@H]1NC(=O)[C@@]23C(=O)N[C@@H](Cc4ccccc4)C2[C@H](C)[C@@]2(C)O[C@H]2C3/C=C/C/C=C\\CNC(=O)[C@@H]2CCCN2C1=O (stereo partly specified)", 0.0971),
]

Query block: Using the record for CN(C)C(=O)[C@@]1(CCS(=O)(=O)c2ccccc2)N=C(c2ccc(OCCCO)cc2)O[C@H]1c1ccccc1CN=[N+]=[N-] , report its z-score.
Result block: 0.828

Query block: Using the record for COCCOC(=O)N1C(=O)[C@@]2(c3cc(C#CCNC(N)=O)ccc31)[C@H](C(=O)N1CCCCCCC1)[C@H]1C(=O)O[C@H](c3ccccc3)[C@H](c3ccccc3)N1[C@@H]2c1ccc(OCCO)cc1 , report its z-score.
Result block: 0.636

Query block: Using the record for COCCCNC(=O)[C@]1(Cc2ccccc2CN=[N+]=[N-])N=C(c2ccc(OCCCO)cc2)O[C@@H]1c1ccccc1CN=[N+]=[N-] , report its z-score.
Result block: 0.0035

----------
z-score values, listed per item
- testName: hepatitis C replication reporter changes, two-sided – Huh7 cells, luciferase reporter, HCV replication inhibitor project, primary screen (AID 1109);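 note: huh7 hepatoma cells harbouring a luciferase neomycin HCV replicon reporter; luciferase luminescence as measure of HCV replicon replication; test concentration not given here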
- experimentalConditions: Huh7 HCV replicon luciferase reporter, 48 h; higher = more signal
I only need the number, thanks.

# molecule, z-score
records = [
    ("C=C(CCCC)/C(=C/C[C@H](OC(=O)c1ccncc1)c1ccc(CO)o1)c1cc(C(=O)OC)ccc1OC", -1.93),
]

Query block: Using the record for CC(C)CNC(=O)[C@@]1(c2ccc([N+](=O)[O-])cc2)CC(=O)N(C(C)C)[C@@H]1c1ccc(CO)cc1 , report its z-score.
Result block: -0.687

Query block: Using the record for COC(=O)[C@@]1(Cc2ccccc2)[C@H]2c3cc(C(=O)N4CCCC4)n(CCO)c3C[C@H]2CN1C(=O)c1ccccc1 , report its z-score.
Result block: -1.02

Query block: Using the record for COc1cccc(C[C@H]2C[C@@H](CO[Si](C(C)C)(C(C)C)C(C)C)N3C(=O)[C@]4(C(C)=O)O[C@]23[C@H]2C(=O)N(C)C(=O)[C@H]24)c1 , report its z-score.
Result block: -3.15

Query block: Using the record for COc1ccc([Si](C)(C)[C@@H]2[C@@H](CC(=O)N(CCO)Cc3ccccc3)O[C@]3(C(=O)N(C)c4c(Br)cc(C)cc43)[C@H]2C)cc1 , report its z-score.
Result block: -4.3

Query block: Using the record for CCCNC(=O)[C@@]1(Sc2ccc(C)cc2)CC(=O)N(Cc2ccccc2)[C@@H]1c1ccc(CO)cc1I , report its z-score.
Result block: -2.64

Query block: Using the record for CN1C(=O)C2C=CC(C(O)c3cccc4ccccc34)N(NC(=O)OC(C)(C)C)C2C1=O (configuration not stated) , report its z-score.
Result block: -0.602
